Target: Indoleamine 2,3-dioxygenase 1 (Homo sapiens)
Sequence (P14902 whole entry): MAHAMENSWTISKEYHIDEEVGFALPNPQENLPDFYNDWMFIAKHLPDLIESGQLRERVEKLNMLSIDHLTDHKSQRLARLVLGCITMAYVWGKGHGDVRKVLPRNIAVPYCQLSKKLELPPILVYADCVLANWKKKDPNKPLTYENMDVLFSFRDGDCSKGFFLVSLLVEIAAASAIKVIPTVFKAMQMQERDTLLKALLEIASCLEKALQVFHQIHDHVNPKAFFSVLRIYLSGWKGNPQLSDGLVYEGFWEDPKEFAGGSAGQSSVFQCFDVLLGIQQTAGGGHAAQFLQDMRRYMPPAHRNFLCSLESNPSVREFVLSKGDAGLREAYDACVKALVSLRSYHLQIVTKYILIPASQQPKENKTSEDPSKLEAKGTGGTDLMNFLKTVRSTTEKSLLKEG
Experiment: Inhibition of human N-terminal His-tagged IDO1 expressed in Escherichia coli using D-Trp as substrate
pIC50: −log10 of the molar value.
assayReadout: pIC50

The following compounds have reported results that may help.
>>> assayvalue("COCCNc1nonc1/C(=N/O)Nc1ccc(F)c(Br)c1")
6.70
>>> assayvalue("CS(=O)(=O)NCCNc1nonc1C(=NO)Nc1ccc(F)c(Br)c1")
7.00

[P] NCCNc1nonc1/C(=N/O)Nc1ccc(F)c(Br)c1
[Q] CNc1nonc1/C(=N/O)Nc1ccc(F)c(Br)c1
[R] CCNc1nonc1/C(=N/O)Nc1ccc(F)c(Br)c1
// query Put the items in sequence by pIC50, from largest down. Sort the labels as requested; that list is your answer.
// result Q, R, P
(Q: 7.00, R: 6.74, P: 6.54)

* * *

Assay: Half life in beagle dog at 10 mg/kg, po by LC/MS/MS analysis
Assay type: ADME, organism-based, Canis lupus familiaris
Settings: in vivo
assayReadout: half-life (h)
Give the quantity in h, number only.

// query Which half-life is reported for this compound? NS(=O)(=O)NCCNc1nonc1C(=NO)Nc1ccc(F)c(Br)c1 [EPACADOSTAT]
// result 4.9

* * *

Test system: Plasma
Test: Fraction unbound in human plasma after 2 hrs by equilibrium dialysis method
Type: ADME, cell-free
assayReadout: Fu (%)

The following molecules have reported results that may help.
>>> assayvalue("CS(=O)(=O)NCCNc1nonc1C(=NO)Nc1ccc(F)c(Br)c1")
2.4
>>> assayvalue("COCCNc1nonc1/C(=N/O)Nc1ccc(F)c(Br)c1")
0.9
>>> assayvalue("NCCNc1nonc1/C(=N/O)Nc1ccc(F)c(Br)c1")
6.1

[1] OCCNc1nonc1/C(=N/O)Nc1ccc(F)c(Br)c1
[2] NS(=O)(=O)NCCNc1nonc1C(=NO)Nc1ccc(F)c(Cl)c1
// query // which entry reports the smaller Fu, 1 or 2 ? Kindly give the label for the entry you pick.
// result 1

* * *

Experiment: Clearance in beagle dog at 5 mg/kg, iv or 10 mg/kg, po by LC/MS/MS analysis
Type: ADME, organism-based, Canis lupus familiaris
Conditions: in vivo
assayReadout: clearance (mL/min/kg)
Give the quantity in mL/min/kg, number only.

// query Which clearance is reported for this compound? `NS(=O)(=O)NCCNc1nonc1C(=NO)Nc1ccc(F)c(Br)c1`
// result 8.33

* * *

System: Liver
Assay: Intrinsic clearance in rat hepatic S9 fraction at 5 uM in presence of UDPGA/NADPH measured over 30 mins by LC/MS analysis
Type: ADME, tissue-based
Conditions: s9, 0.5 h
assayReadout: CLH (mL/min/kg)

The following molecules have reported results that may help.
>>> assayvalue("NS(=O)(=O)NCCNc1nonc1C(=NO)Nc1ccc(F)c(Br)c1")
12
>>> assayvalue("CC(=O)NCCNc1nonc1/C(=N/O)Nc1ccc(F)c(Br)c1")
33
>>> assayvalue("NS(=O)(=O)NCCNc1nonc1C(=NO)Nc1ccc(F)c(Cl)c1")
13
>>> assayvalue("CS(=O)(=O)NCCNc1nonc1C(=NO)Nc1ccc(F)c(Br)c1")
25

[a] Nc1nonc1C(=Nc1ccc(F)c(Br)c1)NO
[b] NCCNc1nonc1/C(=N/O)Nc1ccc(F)c(Br)c1
// query Out of a and b , name the one with the higher CLH. Kindly give the label for the entry you pick.
// result a
